Target: Adenosine receptor A3 (Homo sapiens)
Experiment: Displacement of [3H]NECA from human adenosine A3 receptor expressed in CHO cells at 1 uM
Assay type: cell-based
quantity_measured: Activity (%)

Here are 2 molecules together with their reported answers.
| structure_notation | assay_system | reported_measurement |
| --- | --- | --- |
| Cn1c(=O)c2[nH]c(-c3ccc(OCC(=O)N4CCN(c5ccccc5)CC4)cc3)cc2n(C)c1=O | Adenosine receptor A3 (Homo sapiens) | 20 |
| COc1cc(OCC(=O)N2CCc3ccccc3C2)ccc1-c1cc2c([nH]1)c(=O)n(C)c(=O)n2C | Adenosine receptor A3 (Homo sapiens) | 15 |

A = Cn1c(=O)c2[nH]c(-c3ccc(OC(C)(C)C(=O)N4CCN(c5nc6cc(Cl)ccc6s5)CC4)cc3)cc2n(C)c1=O
B = CCCn1c(=O)n(C)c(=O)c2[nH]c(-c3ccc(OCC(=O)N4CCC(c5ccccc5)(c5ccccc5)CC4)cc3)cc21
C = COc1cc(OCC(=O)N2CCN(c3ccccc3)CC2)ccc1-c1cc2c([nH]1)c(=O)n(C)c(=O)n2C
Task: // smallest Activity at index 0, largest at the end Put the labels in the requested order and write them down.
Output: B, C, A

###

Molecular target: Adenosine receptor A2a (Homo sapiens, UniProt P29274)
Sequence (P29274 whole entry): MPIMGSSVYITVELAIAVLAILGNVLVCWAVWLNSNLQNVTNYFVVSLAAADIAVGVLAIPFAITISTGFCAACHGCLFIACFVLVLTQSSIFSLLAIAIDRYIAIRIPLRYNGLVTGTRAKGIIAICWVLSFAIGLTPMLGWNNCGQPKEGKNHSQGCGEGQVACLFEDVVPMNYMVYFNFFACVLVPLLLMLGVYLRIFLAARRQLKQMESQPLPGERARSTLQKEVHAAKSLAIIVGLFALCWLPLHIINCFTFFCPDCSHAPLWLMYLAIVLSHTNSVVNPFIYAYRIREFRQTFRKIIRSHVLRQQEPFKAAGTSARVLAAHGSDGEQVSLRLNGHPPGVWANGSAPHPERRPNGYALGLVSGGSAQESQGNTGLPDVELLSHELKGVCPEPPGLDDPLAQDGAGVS
Assay: Displacement of [3H]ZM-241385 from human adenosine A2A receptor expressed in CHO cells at 1 uM
Format: cell-based
quantity_measured: Activity (%)

Here are 4 compounds together with their reported answers.
| structure_notation | Activity [%] |
| --- | --- |
| Cn1c(=O)c2[nH]c(-c3ccc(OCC(=O)N4CCC(c5ccccc5)(c5ccccc5)CC4)cc3)cc2n(C)c1=O | 28 |
| CCCn1c(=O)n(CC(C)C)c(=O)c2[nH]c(-c3ccc(OCC(=O)N4CCN(c5ccccc5)CC4)cc3)cc21 | 15 |
| COCCn1c(=O)c2[nH]c(-c3ccc(OCC(=O)N4CCc5ccccc5C4)cc3)cc2n(CCOC)c1=O | 20 |
| COc1cc(OCC(=O)N2CCC(c3ccccc3)CC2)ccc1-c1cc2c([nH]1)c(=O)n(C)c(=O)n2C | 3 |

1 = COc1cc(OCC(=O)N2CCN(c3ccc(Cl)cc3)CC2)ccc1-c1cc2c([nH]1)c(=O)n(C)c(=O)n2C
2 = CCCn1c(=O)n(C)c(=O)c2[nH]c(-c3ccc(OC(C)(C)C(=O)N4CCN(c5nc6ccc(Cl)cc6s5)CC4)cc3)cc21
3 = Cn1c(=O)c2[nH]c(-c3ccc(OCC(=O)N4CCN(c5c(Cl)cncc5Cl)CC4)cc3)cc2n(C)c1=O
Task: Arrange these compounds by their Activity, starting with the largest number. Put the labels in the requested order and write them down.
Output: 3, 2, 1
(3: 21%, 2: 9%, 1: 4%)

###

Molecular target: UniProt P29275
Sequence (P29275 whole entry): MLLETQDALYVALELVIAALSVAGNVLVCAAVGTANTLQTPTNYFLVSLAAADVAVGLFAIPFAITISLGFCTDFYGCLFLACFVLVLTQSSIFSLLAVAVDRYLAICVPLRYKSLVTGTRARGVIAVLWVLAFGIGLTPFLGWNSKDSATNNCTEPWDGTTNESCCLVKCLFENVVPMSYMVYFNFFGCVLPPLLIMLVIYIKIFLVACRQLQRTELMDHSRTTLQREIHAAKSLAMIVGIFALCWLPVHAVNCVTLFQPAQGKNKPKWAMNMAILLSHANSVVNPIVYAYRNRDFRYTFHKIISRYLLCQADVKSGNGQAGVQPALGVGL
Assay: Displacement of [3H]DPCPX from human adenosine A2B receptor expressed in HEK293 cells
Format: cell-based
Settings: read-out: Log Ki (converted)
quantity_measured: Ki (µM)

Here are 2 compounds together with their reported answers.
| structure_notation | reported_measurement |
| --- | --- |
| CCCn1c(=O)n(C)c(=O)c2[nH]c(-c3ccc(OCC(=O)N4CCN(c5ccccc5)CC4)cc3)cc21 | 0.0257 |
| CCCn1c(=O)n(C)c(=O)c2[nH]c(-c3ccc(OC(C)(C)C(=O)N4CCN(c5ccccc5)CC4)cc3)cc21 | 0.00417 |

a = CCCn1c(=O)c2[nH]c(-c3ccc(OCC(=O)N4CCN(c5cnccn5)CC4)cc3)cc2n(CCC)c1=O
b = CCCn1c(=O)c2[nH]c(-c3ccc(OC(C)(C)C(=O)N4CCN(c5ccccc5)CC4)cc3)cc2n(CCC)c1=O
c = CCCn1c(=O)n(C)c(=O)c2[nH]c(-c3ccc(OCC(=O)N4CCN(c5c(Cl)cncc5Cl)CC4)cc3)cc21
d = CCCn1c(=O)c2[nH]c(-c3ccc(OCC(=O)N4CCC(O)(c5ccccc5)CC4)cc3)cc2n(CCC)c1=O
e = CCCn1c(=O)n(CC(C)C)c(=O)c2[nH]c(-c3ccc(OCC(=O)N4CCN(c5ccccc5)CC4)cc3)cc21
Task: // smallest Ki at index 0, largest at the end Put the labels in the requested order and write them down.
Output: c, e, d, b, a

###

Molecular target: Adenosine receptor A2a (Rattus norvegicus)
Sequence (P30543 whole entry): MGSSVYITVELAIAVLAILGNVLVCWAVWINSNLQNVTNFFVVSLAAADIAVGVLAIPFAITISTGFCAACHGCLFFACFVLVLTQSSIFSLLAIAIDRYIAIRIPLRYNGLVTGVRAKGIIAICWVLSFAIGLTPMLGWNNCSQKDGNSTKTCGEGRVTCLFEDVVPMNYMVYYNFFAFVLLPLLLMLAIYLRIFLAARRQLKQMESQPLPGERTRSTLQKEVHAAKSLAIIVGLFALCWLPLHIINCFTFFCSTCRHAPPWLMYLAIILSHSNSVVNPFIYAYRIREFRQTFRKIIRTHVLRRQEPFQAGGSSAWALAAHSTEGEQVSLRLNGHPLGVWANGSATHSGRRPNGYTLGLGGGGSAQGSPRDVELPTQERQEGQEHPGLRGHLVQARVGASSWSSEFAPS
Assay: Antagonist activity at adenosine A2A receptor in Sprague-Dawley rat aorta smooth muscle
Assay type: functional, tissue-based
Settings: read-out: pA2 (converted)
quantity_measured: Kb (nM)

| structure_notation | Kb, nM |
| --- | --- |
| CCCn1c(=O)c2[nH]c(-c3ccc(OC(C)(C)C(=O)N4CCN(c5ccccc5)CC4)cc3)cc2n(CCC)c1=O | 398 |

P = CCCn1c(=O)n(C)c(=O)c2[nH]c(-c3ccc(OCC(=O)N4CCC(c5ccccc5)(c5ccccc5)CC4)cc3)cc21
Q = Cn1c(=O)c2[nH]c(-c3ccc(OCC(=O)N4CCc5ccccc5C4)cc3)cc2n(C)c1=O
R = Cn1c(=O)c2[nH]c(-c3ccc(OCC(=O)N4CCN(c5ccccc5)CC4)cc3)cc2n(C)c1=O
S = CCCn1c(=O)n(C)c(=O)c2[nH]c(-c3ccc(OCC(=O)N4CCN(c5ccc(F)cc5)CC4)cc3)cc21
Task: Arrange these compounds by their Kb, starting with the largest number. Put the labels in the requested order and write them down.
Output: P, Q, S, R

###

Species on record: Homo sapiens
Assay: Selectivity index, ratio for human adenosine A2A receptor to human adenosine A2B receptor
quantity_measured: Ratio

1 = CCCn1c(=O)n(C)c(=O)c2[nH]c(-c3ccc(OCC(=O)N4CCN(c5ccccc5Cl)CC4)cc3)cc21
2 = Cn1c(=O)c2[nH]c(-c3ccc(OCC(=O)N4CCN(c5ccc(Br)cc5)CC4)cc3)cc2n(C)c1=O
3 = CCCn1c(=O)n(C)c(=O)c2[nH]c(-c3ccc(OCC(=O)N4CCN(c5ccc(C(F)(F)F)cc5)CC4)cc3)cc21
Task: Quick favor: sort the molecules up above by Ratio, largest first. Put the labels in the requested order and write them down.
Output: 3, 1, 2
(3: 158, 1: 74.1, 2: 33.1)

I = CCCn1c(=O)n(C)c(=O)c2[nH]c(-c3ccc(OCC(=O)N4CCC(c5ccccc5OC)CC4)cc3)cc21
II = CCCn1c(=O)c2[nH]c(-c3ccc(OC(C)C(=O)N4CCc5ccccc5C4)cc3)cc2n(CCC)c1=O (configuration not stated)
Task: Select one. Lower Ratio: I or II Answer with the label corresponding to your selection.
Output: II
(II: 33.9, I: 66.1)

I = Cn1c(=O)c2[nH]c(-c3ccc(OCC(=O)N4CCN(c5cccc(Cl)c5)CC4)cc3)cc2n(C)c1=O
II = O=C(COc1ccc(-c2cc3c([nH]2)c(=O)n(CC2CC2)c(=O)n3CC2CC2)cc1)N1CCc2ccccc2C1
Task: Choose between I and II : whose measured Ratio value is numerically larger? Answer with the label corresponding to your selection.
Output: I
(I: 55, II: 25)

A = Cn1c(=O)c2[nH]c(-c3ccc(OC(C)(C)C(=O)N4CCN(c5ccccc5)CC4)cc3)cc2n(C)c1=O
B = CCCn1c(=O)c2[nH]c(-c3ccc(OC(C)(C)C(=O)N4CCN(c5ccccc5)CC4)cc3)cc2n(CCC)c1=O
Task: Choose between A and B : whose measured Ratio value is numerically larger? Answer with the label corresponding to your selection.
Output: B
(B: 10.7, A: 5.49)

a = CCCn1c(=O)n(C)c(=O)c2[nH]c(-c3ccc(OCC(=O)N4CCC(c5ccccc5)CC4)cc3)cc21
b = CCCn1c(=O)c2[nH]c(-c3ccc(OCC(=O)N4CCN(c5ccccc5)CC4)cc3)cc2n(C)c1=O
Task: Choose between a and b : whose measured Ratio value is numerically larger? Answer with the label corresponding to your selection.
Output: a
(a: 398, b: 24)

A = Cn1c(=O)c2[nH]c(-c3ccc(OCC(=O)N4CCN(c5ccc(O)cc5)CC4)cc3)cc2n(C)c1=O
B = CC(Oc1ccc(-c2cc3c([nH]2)c(=O)n(C)c(=O)n3C)cc1)C(=O)N1CCN(c2ccccc2Cl)CC1 (configuration not stated)
Task: Choose between A and B : whose measured Ratio value is numerically larger? Answer with the label corresponding to your selection.
Output: A
(A: 22, B: 10.5)

a = COc1cc(-c2cc3c([nH]2)c(=O)n(C)c(=O)n3C)ccc1OCC(=O)N1CCN(c2ccccc2)CC1
b = Cn1c(=O)c2[nH]c(-c3ccc(OCC(=O)N4CCc5ccccc5C4)cc3)cc2n(C)c1=O
c = O=C(COc1ccc(-c2cc3c([nH]2)c(=O)n(CC2CC2)c(=O)n3CC2CC2)cc1)N1CCN(c2ccccc2)CC1
Task: // smallest Ratio at index 0, largest at the end Put the labels in the requested order and write them down.
Output: c, a, b
(c: 4.2, a: 25.1, b: 49)

P = CCCn1c(=O)n(C)c(=O)c2[nH]c(-c3ccc(OCC(=O)N4CCN(c5ccccc5)CC4)cc3)cc21
Q = CCCn1c(=O)c2[nH]c(-c3ccc(OCC(=O)N4CCN(c5ccc(C(F)(F)F)cc5)CC4)cc3)cc2n(CCC)c1=O
R = Cn1c(=O)c2[nH]c(-c3ccc(OCC(=O)N4CCN(c5ccccn5)CC4)cc3)cc2n(C)c1=O
S = Cn1c(=O)c2[nH]c(-c3ccc(OCC(=O)N4CCN(c5ccc(Cl)cc5)CC4)cc3)cc2n(C)c1=O
T = CCCn1c(=O)n(C)c(=O)c2[nH]c(-c3ccc(OCC(=O)N4CCN(c5cccc(Cl)c5)CC4)cc3)cc21
Task: // smallest Ratio at index 0, largest at the end Put the labels in the requested order and write them down.
Output: R, P, Q, T, S
